Quick reference: Post-emergence action rating, Echino. of the listed items.
- System: Monocotyledonous and dicotyledonous test plants
- testName: Post-emergence herbicidal action, greenhouse pot test, sprayed at the 2- to 3-leaf stage, 9-level rating after 2 to 3 weeks
- Type: in vivo
- experimentalContext: Echino., 250 g/ha, rated after 2 to 3 weeks, 9-level scale
Lab note: write the figure by itself, no unit.

get_value(item= CSc1nnc(SCc2nc(C(F)(F)F)ccc2C(=O)C2=C(O)CCCC2=O)s1 , readout=Post-emergence action rating, Echino.) returns 7

get_value(item= CCCOCCOCc1nc(C(F)(F)F)ccc1C(=O)C1=C(O)C2CCC(C2)C1=O (stereo not shown) , readout=Post-emergence action rating, Echino.) returns 4

get_value(item= O=C(C1=C(O)C2CCC(C2)C1=O)c1ccc(C(F)(F)F)nc1COCCO (stereo not shown) , readout=Post-emergence action rating, Echino.) returns 2

get_value(item= COCc1nc(C(F)(F)F)ccc1C(=O)c1cnn(C)c1O , readout=Post-emergence action rating, Echino.) returns 2

get_value(item= O=C(C1=C(O)C2CCC(C2)C1=O)c1ccc(C(F)(F)F)nc1COC1CCCCO1 (stereo not shown) , readout=Post-emergence action rating, Echino.) returns 2

Next:
get_value(item= O=C(C1=C(O)C2CCC(C2)C1=O)c1ccc(C(F)(F)F)nc1COCC1CCCCO1 (stereo not shown) , readout=Post-emergence action rating, Echino.) returns 2

get_value(item= COCCOCc1c(C(=O)C2=C(O)C3CCC(C3)C2=O)ccc(C(F)(F)F)[n+]1[O-] (stereo not shown) , readout=Post-emergence action rating, Echino.) returns 2

---

- System: Monocotyledonous and dicotyledonous test plants
- testName: Post-emergence herbicidal action, greenhouse pot test, sprayed at the 2- to 3-leaf stage, 9-level rating after 2 to 3 weeks
- Format: in vivo
- experimentalContext: Amaranth, 250 g/ha, rated after 2 to 3 weeks, 9-level scale
Quick reference: Post-emergence action rating, Amaranth of the listed items.
Lab note: write the figure by itself, no unit.

# count of solved cases: 5
get_value(item= O=C(C1=C(O)C2CCC(C2)C1=O)c1ccc(C(F)(F)F)nc1COCC1CCCCO1 (centres unmarked) , readout=Post-emergence action rating, Amaranth) returns 2

get_value(item= CCOCCOCc1nc(C(F)(F)F)ccc1C(=O)c1cnn(C)c1OS(C)(=O)=O , readout=Post-emergence action rating, Amaranth) returns 2

get_value(item= O=C(C1=C(O)C2CCC(C2)C1=O)c1ccc(C(F)(F)F)nc1COCCOCOCc1ccccc1 (centres unmarked) , readout=Post-emergence action rating, Amaranth) returns 2

get_value(item= COCCOCc1nc(C(F)(F)Cl)ccc1C(=O)C1=C(O)C2CCC(C2)C1=O (centres unmarked) , readout=Post-emergence action rating, Amaranth) returns 2

get_value(item= O=C(C1=C(O)C2CCC(C2)C1=O)c1ccc(C(F)(F)F)nc1COC1COCOC1 (centres unmarked) , readout=Post-emergence action rating, Amaranth) returns 2

Next:
get_value(item= COc1cc(OC)nc(SCc2nc(C(F)(F)F)ccc2C(=O)C2=C(O)C3CCC(C3)C2=O)n1 (centres unmarked) , readout=Post-emergence action rating, Amaranth) returns 4

get_value(item= COCCOCc1nc(C(F)(F)F)ccc1C(=O)c1cnn(C)c1OS(C)(=O)=O , readout=Post-emergence action rating, Amaranth) returns 2

get_value(item= COCCOCc1nc(C(F)(F)F)ccc1C(=O)C1=C(O)CCC(C)(C)C1=O , readout=Post-emergence action rating, Amaranth) returns 1

---

- Tested on: Monocotyledonous and dicotyledonous test plants
- testName: Herbicidal action before emergence of the plants (pre-emergence action), greenhouse pot test, 9-level rating after 4 weeks
- Type: in vivo
- experimentalContext: Echino., 250 g/ha, rated after 4 weeks, 9-level scale
- Description: Herbicidal Action Before Emergence of the Plants (Pre-Emergence Action) Monocotyledonous and dicotyledonous test plants are sown in standard soil in pots. […] After a test period of 4 weeks, the test is evaluated using a 9-level scale of ratings (1=complete damage, 9=no effect). […]
endpoint: Pre-emergence action rating, Echino.
Lab note: write the figure by itself, no unit.

# count of solved cases: 5
get_value(item= COCCOCCOCc1nc(C(F)(F)F)ccc1C(=O)C1=C(O)C2CCC(C2)C1=O (centres unmarked) [A835-B52] , readout=Pre-emergence action rating, Echino.) returns 1

get_value(item= O=C(C1=C(O)C2CCC(C2)C1=O)c1ccc(C(F)(F)F)nc1COC1COC1 (centres unmarked) [A24-B52] , readout=Pre-emergence action rating, Echino.) returns 1

get_value(item= CCCCCCCC(=O)OCc1nc(C(F)(F)F)ccc1C(=O)C1=C(O)C2CCC(C2)C1=O (centres unmarked) [A843-B52] , readout=Pre-emergence action rating, Echino.) returns 2

get_value(item= O=C(C1=C(O)C2CCC(C2)C1=O)c1ccc(C(F)(F)F)nc1COCC1CO1 (centres unmarked) [A57-B52 (H5)] , readout=Pre-emergence action rating, Echino.) returns 1

get_value(item= C=CCOCCOCc1nc(C(F)(F)F)ccc1C(=O)C1=C(O)C2CCC(C2)C1=O (centres unmarked) [A840-B52] , readout=Pre-emergence action rating, Echino.) returns 2

Alright, here's another molecule for you.
get_value(item= O=C(OCc1nc(C(F)(F)F)ccc1C(=O)C1=C(O)C2CCC(C2)C1=O)c1ccccc1 (centres unmarked) [A844-B52] , readout=Pre-emergence action rating, Echino.) returns 2

---

- Test system: Monocotyledonous and dicotyledonous test plants
- testName: Post-emergence herbicidal action, greenhouse pot test, sprayed at the 2- to 3-leaf stage, 9-level rating after 2 to 3 weeks
- Type: in vivo
- experimentalContext: Amaranth, 250 g/ha, rated after 2 to 3 weeks, 9-level scale
endpoint: Post-emergence action rating, Amaranth
Lab note: write the figure by itself, no unit.

# count of solved cases: 4
get_value(item= O=C(OCc1nc(C(F)(F)F)ccc1C(=O)C1=C(O)C2CCC(C2)C1=O)c1ccccc1 (stereo not drawn) , readout=Post-emergence action rating, Amaranth) returns 3

get_value(item= O=C(C1=C(O)C2CCC(C2)C1=O)c1ccc(C(F)(F)F)nc1COCC1CC1 (stereo not drawn) , readout=Post-emergence action rating, Amaranth) returns 1

get_value(item= CSCCOCc1nc(C(F)(F)F)ccc1C(=O)C1=C(O)C2CCC(C2)C1=O (stereo not drawn) , readout=Post-emergence action rating, Amaranth) returns 2

get_value(item= CCOC(=O)C1(C)CCC(=O)C(C(=O)c2ccc(C(F)(F)F)nc2COCCOC)=C1O (stereo not drawn) , readout=Post-emergence action rating, Amaranth) returns 2

Next:
get_value(item= CC#CCOCc1nc(C(F)(F)F)ccc1C(=O)c1cnn(C)c1O , readout=Post-emergence action rating, Amaranth) returns 2

get_value(item= CCC(OC)OCCOCc1nc(C(F)(F)F)ccc1C(=O)C1=C(O)C2CCC(C2)C1=O (stereo not drawn) , readout=Post-emergence action rating, Amaranth) returns 2

get_value(item= CN(Cc1nc(C(F)(F)F)ccc1C(=O)c1cnn(C)c1O)S(C)(=O)=O , readout=Post-emergence action rating, Amaranth) returns 1

get_value(item= CC(=O)OCCOCc1nc(C(F)(F)F)ccc1C(=O)C1=C(O)C2CCC(C2)C1=O (stereo not drawn) , readout=Post-emergence action rating, Amaranth) returns 2

get_value(item= CCCCCCCC(=O)OCCOCc1nc(C(F)(F)F)ccc1C(=O)C1=C(O)C2CCC(C2)C1=O (stereo not drawn) , readout=Post-emergence action rating, Amaranth) returns 2

get_value(item= CCOCCOCc1nc(C(F)(F)F)ccc1C(=O)C1=C(O)C2CCC(C2)C1=O (stereo not drawn) , readout=Post-emergence action rating, Amaranth) returns 1

get_value(item= CC(C)(C)C(=O)OCc1nc(C(F)(F)F)ccc1C(=O)C1=C(O)C2CCC(C2)C1=O (stereo not drawn) , readout=Post-emergence action rating, Amaranth) returns 2

get_value(item= CCN(CC)CC.O=C(C1=C(O)C2CCC(C2)C1=O)c1ccc(C(F)(F)F)nc1COC1CCCCO1 (stereo not drawn) [A28-B52 (Et3NH+)] , readout=Post-emergence action rating, Amaranth) returns 2

---

- System: Monocotyledonous and dicotyledonous test plants
- testName: Herbicidal action before emergence of the plants (pre-emergence action), greenhouse pot test, 9-level rating after 4 weeks
- Assay type: in vivo
- experimentalContext: Echino., 250 g/ha, rated after 4 weeks, 9-level scale
endpoint: Pre-emergence action rating, Echino.
Lab note: write the figure by itself, no unit.

# count of solved cases: 4
get_value(item= CC(=O)OCc1nc(C(F)(F)F)ccc1C(=O)C1=C([O-])C2CCC(C2)C1=O.[K+] (centres unmarked) , readout=Pre-emergence action rating, Echino.) returns 2

get_value(item= C=CCOCc1nc(C(F)(F)F)ccc1C(=O)C1=C(O)C2CCC(C2)C1=O (centres unmarked) , readout=Pre-emergence action rating, Echino.) returns 1

get_value(item= CCOCCOCc1nc(C(F)(F)F)ccc1C(=O)C1=C(O)C2CCC(C2)C1=O (centres unmarked) , readout=Pre-emergence action rating, Echino.) returns 1

get_value(item= COCCOCc1nc(C(F)(F)F)ccc1C(=O)C1=C(O)C(C)(C)ON(C)C1=O , readout=Pre-emergence action rating, Echino.) returns 2

Next:
get_value(item= CCOCc1nc(C(F)(F)F)ccc1C(=O)c1cnn(C)c1O , readout=Pre-emergence action rating, Echino.) returns 2

Reference source: patent US7378375B1
